Catalogue of apparent Kd values
test system: MS2 coat protein; experiment: apparent Kd, MS2 coat protein; higher = weaker binding; RNA-MaP array; settings: designed as: OFF switch for flavin mononucleotide; no ligand
Reply with just the number (in nM).

Example entries and their recorded answers appear below.
1. GCGAAGCGAGGAUAUUAAUCCGUACACAUGAGGAUCACCCAUGUGAAUCAAUCAUGUGGUUAAGAAGGCGCGUGGG : 541
2. UACAUUAUAGAGAAGGAUUACUCACACAUGAGGAUCACCCAUGUGUCCAUCAUGGCUGUAGGUUAAUAGGAUAUCUUAGAAGUG : 64.1
3. ACAACUGCAGGAUAUACGAGGGCCGAGGUAUCCGUCCUCGGACAUGAGGAUCACCCAUGUAGAAGGGCAACGAU : 20.9

Here AAAGACGACCAGAAGGAGCCGCCACAUGAGGAUCACCCAUGUAUGCAAAGAUAACUGGGUUAACGCUAGGAUAUGGUGGAGAAA was tested on MS2 coat protein, and its apparent Kd came to 63.5

Item CGCCCGAAAGGAUAUACAUGAGGAUCACCCAUGUUUCUAGCAAAAUGACCCUCAAUUCGUAGAAGGUUCCGAGU was tested on MS2 coat protein; the reported apparent Kd is 32.6

For the sequence CCAUGAAGCGAGGAUAUUCUCACUGCCAAGUUGGAAGAAGGCGCUACAUGAGGAUCACCCAUGUAGUCAGUCCG , the measured apparent Kd on MS2 coat protein was 5.07

Observed apparent Kd on MS2 coat protein, entry AUCGGCGCACAGAAGGGACGAUCAAACUGCUGAUCACAUGAGGAUCACCCAUGUUGUUUGGAUAGUCAGGAUAUGUUGACCAUG , equals 17.6

====

tested on: MS2 coat protein; experiment: apparent Kd, MS2 coat protein; higher = weaker binding; RNA-MaP array; FMN 200 µM where present; settings: ligand present: flavin mononucleotide; designed as: ON switch for flavin mononucleotide
Label rule, in plain words: apparent Kd of 20 nM and up is t, under 20 nM is f.

Answered examples (6):
1) GCCAUCGCAUGAGGAUAUGCUCCCGUUUCGGGAGCAGAAGGCAUGUCACAAGACAUGAGGAUCACCCAUGUAGAUAAGAUGGCA : f
2) GACAUGAGGAUCACCCAUGUCCGGGCCAAAAGAAGAAAUACCAGAAGGACCGGCAGAAAUGAGCGGUAGGAUAUGGGAUUCGUG : f
3) GAGUGGUUGGGAGGAUAUGCAUUGUUAUUAAAUGCAGAAGGUUUUAACAUGAGGAUCACCCAUGUAGGACUAUUCCUGUGUUUC : f
4) AUACAUGAGGAUCACCCAUGUAAUUAAUUAACUUGUAAGAUCAAGGAUAUCAGCUCGAUUAGAGCUGAGAAGGUGAUCACAUGU : t
5) AGUGUCAUCGAGAAGGCCUCAACAUGAGGAUCACCCAUGUUGUAAUAUGGGAGGAUAUCGAUGAUACAGCUACGUUUCGUAGCC : f
6) GGAGGACAUGAGGAUCACCCAUGUGGAUGAACGCUAGGAUAUGCGUGCAGGAAGAGUGGAGCAGAAGGAGUGGGAU : f

Next:
**Q:** Record GUGGGACAUGAGGAUCACCCAUGUGGGAGGGAACGAGGAUAUGUGAGGAGCGAGAAGUGAACAGAAGGCGUGGUUG ; criterion: apparent Kd no lower than 20 nM. Met?
**A:** t

====

system: MS2 coat protein; experiment: apparent Kd, MS2 coat protein; higher = weaker binding; RNA-MaP array; theophylline 2 mM where present; settings: designed as: ON switch for theophylline; no ligand
Label condition met when apparent Kd is at or above 50 nM; otherwise label condition not met.

1. UGUUUGGUGCGCGAGUGUUGGAUAAUUGAUACCAGUGUAGAAGUGCGCCCUUGGCAGCGAAUCCUAACAUGAGGAUCACCCAUGU : condition not met
2. UCGUGUGUUUCGGAUACCAGUGUGGUCGAUACAUGAGGAUCACCCAUGUUAGAGGAGGUACACCCUUGGCAGCCGGCUGUUGCGG : condition met

**Q:** Textbook exercise: given the entry AUGUCGUUGAAUAUAGCGGCUUGGUGUGAUACCAGAAUGAUCUAAUUCCCUUGGCAGCAUUACAUGAGGAUCACCCAUGUUUAGG , state whether its apparent Kd is greater than or equal to 50 nM.
**A:** condition not met

**Q:** Quick check: does UUAGAUAUGACAGAUACCAGCGUGUUGUAGAACAUGAGGAUCACCCAUGUAGUGAUCAAGCGCCCUUGGCAGCUGGUAUGUUUGG have apparent Kd greater than or equal to 50 nM?
**A:** condition met

**Q:** Test whether the sequence ACAUGAGGAUCACCCAUGUCUGCCUCGGAUACCAGCGGAAGAAAACGCCCUUGGCAGCCGAACAUGAGGAUCACCCAUGUAGGCU records apparent Kd of 50 nM or higher.
**A:** condition not met

**Q:** Is it the case that GAUCUGUCGGGUGAUACCAGCCUCGGCGCGUCUCGCGCUGAACAUGAGGAUCACCCAUGUGGCCCUUGGCAGCACAUGACAAAUC has apparent Kd reaching or exceeding 50 nM?
**A:** condition met

**Q:** # bool: apparent Kd of CAGCACAUGAGGAUCACCCAUGUGAGGGAUACCAGCUCAGGCGUGGGCCCUUGGCAGCUCUCUGGCUGACGAAAGUCAGCCUGUG >= 50 nM
**A:** condition not met

**Q:** Has AAGGUGAUCCCAGAUACCAGCUCAACAUGAGGAUCACCCAUGUACGGGACGAAAGUCCCGGGCCCUUGGCAGCUGGGUUGCCAAG a recorded apparent Kd greater than or equal to 50 nM?
**A:** condition met

**Q:** # check: apparent Kd of GGGUAUGAUCCGGAUACCAGCGAACAUGAGGAUCACCCAUGUGACCUAAGAUAGGCUAAACGCCCUUGGCAGCCGAGAUUGCGUU is greater than or equal to 50 nM
**A:** condition not met

**Q:** Could you tell me if the measured apparent Kd of ACUCUGUCGGGUGAUACCAGCCUCGGCACAUCUCGCGCCGAACAUGAGGAUCACCCAUGUGGCCCUUGGCAGCACAUGACAAAUC reaches 50 nM or more?
**A:** condition met

**Q:** Has AAUUUGUCGGGUGAUACCAGCCUCGGCGCAUCUCGCGCUGAACAUGAGGAUCACCCAUGUGGCCCUUGGCAGCACAUGACAAAUC a recorded apparent Kd greater than or equal to 50 nM?
**A:** condition met

**Q:** API: above_or_equal(metric=apparent Kd, cutoff=50 nM) for item AGCAUGUUAGCAGAUACCAGACGUUUUAUGAUCCAUGUAACAUGAGGAUCACCCAUGUAAGUCCCUUGGCAGCUGAAAUAAUGCA
**A:** condition met

**Q:** Could you please find out whether ACAUUAGUUGGCGAUACCAGCUAUAGGCCUUCUGGGCGACAUGAGGAUCACCCAUGUGAUGGCCCUUGGCAGCGCUGAUUGAUGU has apparent Kd that meets 50 nM or exceeds it?
**A:** condition met

====

system: MS2 coat protein; assay: apparent Kd, MS2 coat protein; higher = weaker binding; RNA-MaP array; details: designed as: ON switch for theophylline; no ligand
assay readout: apparent Kd (nM)
Please give a number only; it is taken to be in nM.

Record AUGUCACAUGAGGAUCACCCAUGUAUGGAUACCAGUUUAGUGAAUAACCCUUGGCAGCCAAGGAUGCGACAGAAAUCCGGAAAAC , field apparent Kd: 21.3

Record CGUAAACAUGAGGAUCACCCAUGUGAUGAUACCAGCACGAUUAACUGCCCUUGGCAGCAUGUAUUGUACGACUUAUUGCCCAUCG . Reported apparent Kd: 14.8

# apparent Kd of CCUGGACAUGAGGAUCACCCAUGUGAGGAUACCAGAUAUCCUGAUAUCCCUUGGCAGCCUCAUUACUUCGCAUUACCGAAACUUC = 103

// recorded apparent Kd for UUAGCACAUGAGGAUCACCCAUGUCUCGAUACCAGAUAAGUUCCGAUCCCUUGGCAGCGACAAGCUUGCAAACUGCGACUAUUCU : 24.7

Record GACGGGCCUAUUGAUACCAGACCUAGUGACAACAUGAGGAUCACCCAUGUGACGGCAAAAGUCCCUUGGCAGCAAGUAGAAAUAA . Reported apparent Kd: 12.6

====

tested on: MS2 coat protein; assay: apparent Kd, MS2 coat protein; higher = weaker binding; RNA-MaP array; FMN 200 µM where present; settings: ligand present: flavin mononucleotide; designed as: OFF switch for flavin mononucleotide
We use 30 nM as the dividing line for apparent Kd: on or above the line is T, below is F.

Worked cases, answers included:
1) GGUAUUCGAGGAUAUCGCAAACGAGACAUGAGGAUCACCCAUGUCCCUCAUGCUUGUCGGCGAGAAGGCGACAAGC : F
2) UAUAUAUAGUAAGGAUAUGUAACUAUUUUAUAAACAGAAGGUACUGACAUGAGGAUCACCCAUGUUUUAGUGUGGGCAUGUAGA : T
3) AAAUUUAACGAAGGAUAUGGUUACAUGAGGAUCACCCAUGUAAUGGUUGUGAUAUUGAUUAAGUUCCAGAAGGUCGUAUACAUA : T
4) UAUCCACAUGAGGAUCACCCAUGUGAGGAUAUGUCCAUAUUCGGCAAAUCGGAUAUGGACAGAAGGCACACCGG : T
5) GGUACUCAAAGAGUACCAAUACGAACAUGAGGAUCACCCAUGUAGGAUAUGCUACUCAAAGAGUAGCAGAAGGACAUGUGCCCU : T
6) GGAAUAAAUGCAGGAUAUACGUGGAAAGCCCUCAACAUGAGGAUCACCCAUGUAGAAGGGCAUCUCCCGACCGAAGCGGAUCUC : F
7) GGGCCAUAGUAGAAGGGAUAUACGAAAGGUAUAUCAGGAUAUACAUGAGGAUCACCCAUGUUCUAACAGUGAUAGUCCUCCCUA : T
8) CUCAGACAUGAGGAUCACCCAUGUGAGGAUAUGAUGCGAUCGUCGAAAGACGAUAGCAUCAGAAGGCACAAAUG : T
9) UCCUGGCGAGGAUAUACAAUGUUUUUCGCGUGUUGUUGGGAACAUGAGGAUCACCCAUGUAGAAGGUGCUACUG : T
10) AGGAGUUUGUAGAAGGACGACUAUUAAGUUUUCGUAGGAUAUACUAUUUACAUGAGGAUCACCCAUGUUUAAAUGGAACAAUGU : F

**Q:** Does the sequence AAGGAUAGAGGAUAUACAUAGAUACAGAUUCGUGUAGUCCUACAUGAGGAUCACCCAUGUAGAAGGCUAUCCUA have recorded apparent Kd that is 30 nM or more?
**A:** F

**Q:** Say whether GUCUUCCUAGGAUAUACAUGAGGAUCACCCAUGUACAGUUUCGUCUAGGGAUACUCGCGUAGAAGGAGGUGGAU shows apparent Kd of 30 nM or more.
**A:** F

**Q:** # check: apparent Kd of CUGCUGGAGCUUUGCUUUAGUCGUACAUGAGGAUCACCCAUGUAGGAUAUGGUAGGCUAUGCUUACUAGAAGGAUAGAGUGGUC is greater than or equal to 30 nM
**A:** T

**Q:** apparent Kd >= 30 nM for GGAAAGUGAGGAUAUGCAUAACAAACACAAACACAAACAAAGCAGAAGGCACAUGAGGAUCACCCAUGUAAACA ?
**A:** F

**Q:** Quick check, apparent Kd >= 30 nM? UUGGUAUUCGUAGGAUAUCUGUCGCCACCGUGUGGAGAAGGACGAACAUGAGGAUCACCCAUGUAUCAUGGUGUGGGCUUUGUU
**A:** T

All figures here come from the EternaBench riboswitch data.
